Source listed as patent US4839374A.

Attribute: ED50
- Tested on: compound 48/80-induced lethality
- assay_explanation: Protection of rats from compound 48/80-induced lethality
- Assay type: in vivo, rats of an inbred Wistar strain
- study_conditions: Rattus norvegicus, 4 h, read-out: Compound 48/80 lethality test in rats ED50, s.c. or p.o. 1 h before compound 48/80 0.5 mg/kg i.v.; protection of 50% of animals, survival after 4 hours
Quick reminder: number only, in mg/kg, skip the unit.

Requested field: ED50. Item: Nc1ccccc1C(=O)NCCN1CCC(Cc2nc3ccccc3n2Cc2cccs2)CC1
0.02

What ED50 value was documented for this molecule, Fc1ccc(Cn2c(CC3CCN(CCNc4nc5cccnc5s4)CC3)nc3ccccc32)cc1 ?
0.08

What does the data say about its ED50? Entry: Fc1ccc(Cn2c(CC3CCN(CCSc4nc5cnccc5s4)CC3)nc3ccccc32)cc1
0.16

Using the record for O=c1[nH]c2ccccc2c(=O)n1CCN1CCC(Cc2nc3ccccc3n2Cc2cccs2)CC1 , report its ED50.
0.04

Recorded ED50 of Fc1ccc(Cn2c(CC3CCN(CCN4CCOCC4)CC3)nc3ccccc32)cc1 , please.
0.02

// ED50 lookup, key: O=c1[nH]c2ccccc2n1CCCN1CCC(Sc2nc3ccccc3n2Cc2ccc(F)cc2)CC1
0.16

For Fc1ccc(Cn2c(CC3CCN(CCNc4nc5ccccc5s4)CC3)nc3ccccc32)cc1 , what is its reported ED50?
0.16

Endpoint output: ED50 of COc1ccc(CCN2CCC(Cc3nc4ccccc4n3CCc3ccccc3)CC2)cc1 . Value?
0.16

Report ED50 for Fc1ccc(Cn2c(CC3CCN(CCOCc4ccccn4)CC3)nc3cccnc32)cc1 please.
0.02

# get_value(readout='ED50', item= Fc1ccc(Cn2c(SC3CCN(CCNc4ncccn4)CC3)nc3ccccc32)cc1 )
0.04

Look at this molecule and give its reported ED50. Cc1nc2n(c(=O)c1CCN1CCC(Cc3nc4cccnc4n3Cc3ccco3)CC1)CCCS2
0.02

----------
Below, each of the molecules is paired with its reported ED50 value.
- Test system: compound 48/80-induced lethality
- assay_explanation: Protection of rats from compound 48/80-induced lethality
- Assay type: in vivo, rats of an inbred Wistar strain
- study_conditions: Rattus norvegicus, 4 h, read-out: Compound 48/80 lethality test in rats ED50, s.c. or p.o. 1 h before compound 48/80 0.5 mg/kg i.v.; protection of 50% of animals, survival after 4 hours
Record the value in mg/kg, omitting the unit from your answer.

// worked examples, ED50 included
molecule	unit_name	value_reported
CCNC(=O)NCCN1CCC(Cc2nc3cccnc3n2Cc2ccc(F)cc2)CC1 [Compound 429]	mg/kg	0.02
Nc1nccnc1C(=O)NCCN1CCC(Cc2nc3ccccc3n2Cc2ccc(F)cc2)CC1 [Compound 436]	mg/kg	0.01
O=C(NCCN1CCC(Cc2nc3ccccc3n2Cc2ccc(F)cc2)CC1)C(=O)c1cccs1 [Compound 439]	mg/kg	0.16
O=c1[nH]c2ccccc2c(=O)n1CCN1CCC(Cc2nc3cccnc3n2Cc2ccco2)CC1 [Compound 171]	mg/kg	0.08
CC(C)NC(=O)CN1CCC(Cc2nc3ccccc3n2Cc2ccc(F)cc2)CC1 [Compound 134]	mg/kg	0.04

Which ED50 is listed for O=c1[nH]c2ccccc2n1CCCN1CCC(Cc2nc3ccccc3n2Cc2ccc(F)cc2)CC1 [Compound 207] ?
0.08

// lookup ED50 for Fc1ccc(Cn2c(CC3CCN(CCNc4nnc(Cl)c5ccccc45)CC3)nc3ccccc32)cc1 [Compound 381]
0.08

Could you share which ED50 value was measured for COc1ccc(CCN2CCC(Cc3nc4ccc(O)cc4n3Cc3ccc(F)cc3)CC2)cc1 [Compound 276] ?
0.04

Can you share its ED50? I mean this molecule: O=c1cc[nH]c(=O)n1CCN1CCC(Cc2nc3ccccc3n2Cc2ccco2)CC1 [Compound 175]
0.02

Recorded ED50 of CC(C)N1CCC(Cc2nc3cnccc3n2Cc2ccc(F)cc2)CC1 [Compound 100] , please.
0.16
